Measured IC50, listed per entry.
System: PC-3
Test: Cytotoxicity against human PC3 cells assessed as cell growth inhibition after 24 hrs by MTT assay
Type: functional, cell-based
Conditions: PC-3, 24 h
Reported Endpoint: IC50

In [3]: df
Out[3]:
                                   compound  reported_endpoint  recorded_measurement
0  Cc1cc(C)cc(COc2cc3c(cc2OCc2cc(C)cc(C)c2)CN(C(=O)OC(C)(C)C)CC3)c1               IC50               > 20 µM
1  COc1cc2c(cc1OC)[C@@H]1CC(=O)C[C@@H](c3ccccc3)N1CC2 (relative stereo)               IC50               > 20 µM
2  C[C@@H]1CC(=O)C[C@H]2c3cc(OCc4cccc(F)c4)c(OCc4cccc(F)c4)cc3CCN12               IC50               > 20 µM

----------
Test system: PC-3
Assay: Induction of morphological changes in human PC3 cells assessed as formation of massive cytoplasmic vacuoles at 1 uM after 12 hrs by confocal microscopic analysis
Type: functional, cell-based
Active and inactive are the calls of the source. The calls are words filed in the database; no cut-off is given here.
Outcomes: active, inactive

Molecule	Cat
C[C@@H]1C[C@@H](O)C[C@H]2c3cc(OCc4cccc(F)c4)c(OCc4cccc(F)c4)cc3CCN12	active
Cc1cc(C)cc(COc2cc3c(cc2OCc2cc(C)cc(C)c2)[C@@H]2C[C@@H](O)C[C@@H](C)N2CC3)c1 (racemic)	active
COc1ccc([C@@H]2C[C@@H](O)C[C@H]3c4cc(OCc5cc(C)cc(C)c5)c(OCc5cc(C)cc(C)c5)cc4CCN23)cc1OC	active
C[C@@H]1C[C@@](C)(O)C[C@H]2c3cc(OCc4cc(C(F)(F)F)cc(C(F)(F)F)c4)c(OCc4cc(C(F)(F)F)cc(C(F)(F)F)c4)cc3CCN12	active
C[C@@H]1C[C@H](O)C[C@H]2c3cc(OCc4cc(C(F)(F)F)cc(C(F)(F)F)c4)c(OCc4cc(C(F)(F)F)cc(C(F)(F)F)c4)cc3CCN12	active
C[C@@H]1C[C@@](C)(O)C[C@H]2c3cc(OCc4cccc(F)c4)c(OCc4cccc(F)c4)cc3CCN12	active
CC(=O)O[C@@]12CO[C@@H]1C[C@H](O)[C@@]1(C)C(=O)[C@H](O)C3=C(C)[C@@H](OC(=O)[C@H](O)[C@@H](NC(=O)OC(C)(C)C)c4ccccc4)C[C@@](O)([C@@H](OC(=O)c4ccccc4)[C@H]21)C3(C)C [DOCETAXEL ANHYDROUS]	inactive

----------
Tested on: MDA-MB-231
Test: Cytotoxicity against human MDA-MB-231 cells assessed as cell growth inhibition after 24 hrs by MTT assay
Assay type: functional, cell-based
Conditions: MDA-MB-231, 24 h
Measured IC50, listed per entry.
Reported Endpoint: IC50

>>> print(df.to_string())
                            molecule_smiles  recorded_measurement
0  O[C@@H]1C[C@@H](c2ccccc2)N2CCc3cc(OCc4ccccc4)c(OCc4ccccc4)cc3[C@@H]2C1               11.8 µM
1  O=[N+]([O-])c1ccc([C@@H]2C[C@H](O)C[C@H]3c4cc(OCc5ccccc5)c(OCc5ccccc5)cc4CCN23)cc1               > 20 µM
2  COc1cc2c(cc1OC)[C@@H]1C[C@H](O)C[C@@H](c3ccccc3)N1CC2               > 20 µM
3  C[C@@H]1C[C@@H](O)C[C@H]2c3cc(OCc4ccccc4)c(OCc4ccccc4)cc3CCN12               1.15 µM
4  CCCCCC[C@@H]1C[C@H](O)C[C@H]2c3cc(OCc4ccccc4)c(OCc4ccccc4)cc3CCN12               > 20 µM
5  CC[C@@H]1C[C@@H](O)C/C=C(/C)[C@H]2c3cc(OCc4ccccc4)c(OCc4ccccc4)cc3CCN12               > 20 µM
6  COc1ccc([C@@H]2C[C@H](O)C[C@H]3c4cc(OCc5cc(F)cc(F)c5)c(OCc5cc(F)cc(F)c5)cc4CCN23)cc1OC               > 20 µM
